- Test system: Trypanosoma cruzi
- assay.notes: Trypanosoma cruzi phosphomannomutase and mannose-1-phosphate guanylyltransferase assay
- Format: functional
- Design: scale not given: direction of the effect not stated beside the values
- condition.parameters: 10 µM
property: Percent Effect (%)
Numbers only, in %.

                                   compound  value
0  O=S(=O)(C1CC1)N1CCOCC2(CCN(c3ccccn3)C2)C1 (stereo unspecified)   -5.7
1  CC(NC(=O)c1cc(Br)c2c(c1)OCCO2)C(N)=O (stereo unspecified)   5.82
2  NC(=O)C1CCCN(Cc2c(-c3ccco3)[nH]c3ncccc23)C1 (stereo unspecified)  -3.16
3  CCCc1n[nH]c(C2CN(CCn3cccn3)CCO2)n1 (stereo unspecified)   2.04
4  CCC1CN(C(=O)NCCOc2ccc3c(c2)OCO3)CCO1 (stereo unspecified)  -3.36
5  O=C(c1ccc[nH]1)N1C[C@H](OCc2cccnc2)[C@H]2COC[C@H]21   1.17
6  Cc1cc(C)c(CNC(=O)N2CCN(c3cnccn3)CC2)c(=O)[nH]1   6.96
7  Cc1noc(C2CCCCN2C(=O)NC2CCCC2)n1 (stereo unspecified)  -9.25
8  COc1cccc(OCC2CCCN(C3CCN(C(C)=O)CC3)C2)c1 (stereo unspecified)  -3.67
9  CN(C)C(=O)[C@@H]1C[C@@H]2CCN(Cc3nccs3)C[C@@H]2O1  -3.62

Query: Percent Effect; subject: c1cc(CN2CCCC(c3noc(C4CC4)n3)C2)no1 (stereo unspecified)
4.25

###

I'd appreciate it if you could supply Percent Effect values for the items below.
- tgt: Chromo domain-containing protein 1 (Saccharomyces cerevisiae (strain ATCC 204508 / S288c) (Baker's yeast))
- assay.notes: ScCHD-1 Enzyme Inhibition Assay; note: in the data most compounds retested in dose-response had high values
- Type: functional
- Set-up: scale not given: direction of the effect not stated beside the values
- condition.parameters: 30 µM
One number for each entry, in %.

Recorded Percent Effect, per entry:
>>> df
                                   molecule        property  endpoint_unit  value
0  CC(C)c1nnc(CN2CCCC2Cn2cncn2)o1 (centres undefined)  Percent Effect              %  -9.98
1  CNS(=O)(=O)c1cc(C(=O)NC2CCOc3ccccc32)cc(C)c1C (centres undefined)  Percent Effect              %   7.83
2  CC(C(=O)NCc1ccnc(N2CCCC2)c1)n1cncn1 (centres undefined)  Percent Effect              %  -11.3

Please give Percent Effect, item by item, for the list that follows.
1. CCc1c(C(=O)NCC2CCS(=O)(=O)C2)cnn1-c1ccc(C)cc1 (centres undefined)
2. O=C(NCCOc1ncc(Cl)cc1Cl)c1ccncc1F
3. COCCN1C(=O)CC(N2CCN(c3ccc(F)cc3)CC2)C1=O (centres undefined)
4. O=C1NCCN(CC2CC2)C12CCN(Cc1ccc3c(c1)OCO3)CC2
5. CCc1nc(C2CCCN2C(=O)CCc2ccc3c(c2)OCO3)no1 (centres undefined)
6. c1ccc(C(OCCNC2CCc3ncnn3C2)c2ccccc2)cc1 (centres undefined)
7. Cc1nc(N)sc1C(=O)N1CCCC(c2nccn2CCCN(C)C)C1 (centres undefined)
8. CCC(=O)Nc1ccc2c(c1)CN(C(=O)c1ccco1)CC2

[-6.44, -7.35, -4.78, -3.74, 10.8, -13.3, 95.1, -8.67]

Please give Percent Effect for each item listed below.
1. Cn1cnc2c1CCN(CCS(=O)(=O)c1ccccc1)C2
2. CC(C)(C)n1ncc2c1NC(=O)CC2c1ccccc1 (centres undefined)
3. Cn1ccnc1CN1CCC2(CC1)CC(NC(=O)c1ccccn1)CO2 (centres undefined)
4. O=C(c1ccc(Br)o1)N1CCN(Cc2ccc(OC(F)(F)F)cc2)CC1
5. O=C(C1CC=CC1)N1C[C@@H]2[C@@H](C1)OCC(=O)N2Cc1cccnc1
6. Cc1noc(C)c1CN(C)CCC(=O)N1CCc2sccc2C1

1: -6.73; 2: 96; 3: -10.2; 4: -3.29; 5: -4.72; 6: -7.86

Return reported Percent Effect values for all items listed beneath this line.
1. NC(=O)CN1CCC(C(=O)N2CCCC(OCc3cccnc3)C2)CC1 (centres undefined)
2. O=C(Nc1nnc(C2CC2)s1)NC1CCN(Cc2ccccc2)C1 (centres undefined)
3. CC(NC(=O)NCCCn1cncn1)c1ccccc1Cl (centres undefined)

1: 1.71; 2: -0.956; 3: -11

I need Percent Effect for every entry listed below, if you could help.
1. CCOc1c(Cl)cccc1NCc1cc(C)on1
2. Cc1cc(C)n(Cc2ccc(C(=O)NCCN3CCOCC3)cc2)n1
3. CS(=O)(=O)N1CCOCC2(CN(Cc3ccco3)CCO2)C1 (centres undefined)
4. CSC(C)C(=O)N1CCCN(Cc2cnn(C(C)C)c2)CC1 (centres undefined)

1: -1.3; 2: -6.36; 3: 0.698; 4: -4.54

###

Assignment: determine reported Percent Effect for the given molecules.
- tgt: Chromo domain-containing protein 1 (Saccharomyces cerevisiae (strain ATCC 204508 / S288c) (Baker's yeast)) (UniProt P32657)
- Sequence (P32657 whole entry, the tested form may be a part): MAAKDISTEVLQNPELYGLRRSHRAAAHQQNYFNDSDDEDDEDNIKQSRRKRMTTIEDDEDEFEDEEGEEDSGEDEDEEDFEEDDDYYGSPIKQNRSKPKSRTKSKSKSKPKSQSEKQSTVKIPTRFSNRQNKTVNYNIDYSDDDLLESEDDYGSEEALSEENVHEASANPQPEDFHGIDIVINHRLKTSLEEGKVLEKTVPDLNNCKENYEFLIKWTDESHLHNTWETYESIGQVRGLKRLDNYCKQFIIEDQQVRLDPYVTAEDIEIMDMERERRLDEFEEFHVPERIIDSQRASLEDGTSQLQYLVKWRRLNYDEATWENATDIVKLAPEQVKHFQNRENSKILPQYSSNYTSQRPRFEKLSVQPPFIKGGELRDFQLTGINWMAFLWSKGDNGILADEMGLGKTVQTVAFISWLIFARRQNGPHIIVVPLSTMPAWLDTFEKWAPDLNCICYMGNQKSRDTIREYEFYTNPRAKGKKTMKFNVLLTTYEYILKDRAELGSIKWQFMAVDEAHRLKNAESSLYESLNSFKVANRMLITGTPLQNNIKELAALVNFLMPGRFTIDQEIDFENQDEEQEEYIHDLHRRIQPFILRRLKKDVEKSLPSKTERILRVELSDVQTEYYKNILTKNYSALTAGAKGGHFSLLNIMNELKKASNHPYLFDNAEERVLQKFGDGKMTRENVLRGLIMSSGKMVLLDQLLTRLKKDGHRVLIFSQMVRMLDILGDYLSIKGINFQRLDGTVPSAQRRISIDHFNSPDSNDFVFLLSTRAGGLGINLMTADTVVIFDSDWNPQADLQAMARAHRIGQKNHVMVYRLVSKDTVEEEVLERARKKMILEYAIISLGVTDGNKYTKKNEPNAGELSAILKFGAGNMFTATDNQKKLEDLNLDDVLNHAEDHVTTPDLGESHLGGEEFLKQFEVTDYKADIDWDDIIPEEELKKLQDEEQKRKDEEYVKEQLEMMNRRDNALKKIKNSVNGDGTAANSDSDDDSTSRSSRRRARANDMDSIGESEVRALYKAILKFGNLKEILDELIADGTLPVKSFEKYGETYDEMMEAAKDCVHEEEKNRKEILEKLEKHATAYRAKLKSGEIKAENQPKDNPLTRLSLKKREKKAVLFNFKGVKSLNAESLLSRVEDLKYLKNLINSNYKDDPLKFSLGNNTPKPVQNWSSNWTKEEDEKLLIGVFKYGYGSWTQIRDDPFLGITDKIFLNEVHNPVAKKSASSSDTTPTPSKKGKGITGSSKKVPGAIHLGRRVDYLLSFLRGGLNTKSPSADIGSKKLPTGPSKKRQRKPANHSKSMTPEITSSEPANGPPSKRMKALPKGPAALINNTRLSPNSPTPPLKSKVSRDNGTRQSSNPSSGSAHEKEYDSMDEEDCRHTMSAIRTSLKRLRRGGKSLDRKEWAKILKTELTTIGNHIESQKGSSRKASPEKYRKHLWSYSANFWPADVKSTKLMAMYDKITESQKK
- assay.notes: ScCHD-1 Enzyme Inhibition Assay; note: in the data most compounds retested in dose-response had high values
- Format: functional
- Design: scale not given: direction of the effect not stated beside the values
- condition.parameters: 30 µM
Give bare numbers, in %.

Look over these answered cases.
>>> df
                                   molecule  value
0  Cn1cccc1C(=O)N1CCCC2(CCN(CCN3CCCC3)C2=O)C1 (stereo unspecified)  0.981
1  COc1ccc(CNC(=O)NC(C)Cn2cccn2)cc1O (stereo unspecified)  -15.6
2  Cc1ccc(C(=O)N2C[C@@H](OCC3CCOCC3)[C@H]3OCCC[C@H]32)o1   18.8

# per-item lookup of Percent Effect; items listed below
1. O=C1NCC2(CCCN(Cc3ccc(Cl)s3)C2)Oc2ccccc21 (stereo unspecified)
2. O=C(NCCCN1CCOCC1)c1cc(-c2ccc3c(c2)CCO3)n[nH]1
3. Cc1cc(CNc2ccc(C(=O)N3CCCC(C)C3)cc2C)no1 (stereo unspecified)
4. CCN1CCN(CC(O)c2ccc(OC(F)(F)F)cc2)CC1 (stereo unspecified)
5. Cc1cc(C)n(-c2cncc(N3CCN(C(=O)C(C)(C)C)CC3)n2)n1
6. CN(CCCc1cnn(C)c1)C(=O)C1CCOC1 (stereo unspecified)
7. Cc1nnc(C(C)NCC2(c3c(F)cccc3F)CCCC2)o1 (stereo unspecified)

[-28.8, -5.21, -5.48, -20.3, -3.42, -1.18, -3.86]

State the recorded Percent Effect for this entry: CN(Cc1ccccc1)CC(O)Cn1cnc2ccsc2c1=O (stereo unspecified)
3.76

###

- tgt: Proteasome subunit beta (Trypanosoma cruzi) (UniProt O96673)
- Sequence (O96673 as listed by the source): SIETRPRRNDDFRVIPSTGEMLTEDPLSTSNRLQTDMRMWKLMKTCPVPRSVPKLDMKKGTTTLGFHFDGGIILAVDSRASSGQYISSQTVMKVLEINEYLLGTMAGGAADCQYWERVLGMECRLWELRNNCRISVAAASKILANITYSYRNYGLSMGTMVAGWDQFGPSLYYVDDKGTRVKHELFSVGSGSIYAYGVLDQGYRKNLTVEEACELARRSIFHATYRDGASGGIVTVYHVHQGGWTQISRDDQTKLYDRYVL
- assay.notes: Trypanosoma cruzi proteasome chymotrypsin-like activity (TcProtChymo) assay. Note: in the data most compounds retested in dose-response had high values.
- Assay type: functional
- Design: scale not given: direction of the effect not stated beside the values
- condition.parameters: 9.37 µM
property: Percent Effect (%)
Give bare numbers, in %.

Reference set (4 entries):
                                   compound                                       tgt        property  value
0     COc1ccc(NC(C)=O)c(N2CCN(C(C)=O)CC2)n1  Proteasome subunit beta (Trypanosoma cruzi) (UniProt O96673)  Percent Effect   7.35
1  CO[C@@H]1CC[C@H]2[C@H]1OCCN2C(=O)COc1ccc(F)cc1  Proteasome subunit beta (Trypanosoma cruzi) (UniProt O96673)  Percent Effect   15.3
2  Cc1nc(CN2CCCC(CCc3ccc(F)cc3F)C2)c[nH]1 (centres undefined)  Proteasome subunit beta (Trypanosoma cruzi) (UniProt O96673)  Percent Effect   3.94
3    O=C(c1cccnc1)N1CCn2nnc(COc3cccnc3)c2C1  Proteasome subunit beta (Trypanosoma cruzi) (UniProt O96673)  Percent Effect     14

Please report Percent Effect for every entry that follows.
1. CC(Nc1cccc(CN2CCOC2=O)c1)C(=O)NC(N)=O (centres undefined)
2. Cc1ccc(S(=O)(=O)NC(=O)c2cccc(OCC(N)=O)c2)s1
3. Cc1nn2cccnc2c1C(=O)N1CCCC(Nc2ccccc2)C1 (centres undefined)

[7.76, 12, -2.46]

Provide Percent Effect for all items below, preserving their order.
1. CCC1CN(C(=O)NCCOc2ccc3c(c2)OCO3)CCO1 (centres undefined)
2. CCc1nnc2n1CCN(Cc1ccc(C(=O)N3CCCC3)cc1)C2
3. CC(C)C(=O)N1CCCC(c2cc(C(F)F)n3ncnc3n2)C1 (centres undefined)

[15.4, 12.8, 4.21]

Answer for every listed entry: what is its Percent Effect? The entries follow.
1. CCN(CC1CCCO1)C(=O)Nc1cc(C(=O)OC)ccc1F (centres undefined)
2. CN(C)C(=O)CN1CCCCC1c1nc(N)ncc1-c1cccc(F)c1 (centres undefined)
3. Cc1ccc(C(=O)N2CCC3(CC2)CC(N2CCCC2)C3)cc1
4. Cc1cc(C2CCCN(C(=O)c3ccc(C)[nH]c3=O)C2)n[nH]1 (centres undefined)
5. Cn1ccnc1CN1CCCC(Cc2ccccn2)C1 (centres undefined)
6. Cc1cnccc1N1CCCN(C(=O)CCCS(N)(=O)=O)CC1
7. COCCc1noc(CN2CCCC2Cn2cc(C)cn2)n1 (centres undefined)
8. Cn1cc(CNCCn2cccn2)c(-c2cccnc2)n1

[2.21, 17.9, 7.12, 1.08, 13.6, 8.87, 3.31, 13.8]

Report Percent Effect for every entry below.
1. CN1CCN(C2CCN(CC(=O)NCC(F)(F)F)CC2)C1=O
2. CC(=O)N(Cc1noc(C2CC2)n1)C1CCN(Cc2ccncc2)C1 (centres undefined)
3. Cc1cc(C)nc(Nc2cccc(C3CCCN(C)C3)n2)n1 (centres undefined)
4. O=C1NC2(CCN(Cc3cccnc3)CC2)CC1c1ccncc1 (centres undefined)

[5.32, 4.86, 4.68, 19]

Please give Percent Effect, item by item, for the list that follows.
1. CCN(CC)C(=O)c1nnc2ccc(N3CCOCC3)cc2n1
2. Cn1cc(CN2CCCC3(CCN(Cc4cccnc4)C3=O)C2)cn1 (centres undefined)

[14.1, 14]
